Reference source: ChEMBL document CHEMBL2146410

target: UniProtKB P08173; experiment: Agonist activity at human muscarinic M4 receptor expressed in CHO cells coexpressing Galpha16 subunit assessed as intracellular calcium mobilization after 10 to 15 mins by FLIPR assay
Sequence (P08173 whole entry): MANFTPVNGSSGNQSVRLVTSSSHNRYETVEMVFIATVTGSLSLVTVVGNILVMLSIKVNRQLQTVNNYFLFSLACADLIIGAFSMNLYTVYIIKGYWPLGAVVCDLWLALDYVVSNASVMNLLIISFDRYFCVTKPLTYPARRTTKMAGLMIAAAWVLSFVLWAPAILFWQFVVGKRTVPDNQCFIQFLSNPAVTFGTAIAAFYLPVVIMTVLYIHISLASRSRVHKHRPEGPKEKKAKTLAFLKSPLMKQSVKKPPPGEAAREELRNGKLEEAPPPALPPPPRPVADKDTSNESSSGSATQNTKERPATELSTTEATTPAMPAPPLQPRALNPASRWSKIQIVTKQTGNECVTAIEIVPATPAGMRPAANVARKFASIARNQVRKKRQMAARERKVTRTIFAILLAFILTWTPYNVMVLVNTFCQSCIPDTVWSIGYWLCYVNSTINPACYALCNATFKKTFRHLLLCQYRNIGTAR
Readout Name: pEC50
One number for each entry, as −log10 of the molar value.

Structure Smiles: Cc1cc2c(cc1F)[nH]c(=O)n2C1CCN(C2CCOCC2)CC1
pEC50: 6.30

Turning to the following compound.
Q: Dear colleague, I am looking for the recorded pEC50 of the following compound: Cc1ccc2[nH]c(=O)n(C3CCN(C4CCOCC4)CC3)c2c1
Result: 6.20

----------
biological target: 5-hydroxytryptamine receptor 2A (Homo sapiens)
Sequence (P28223 whole entry): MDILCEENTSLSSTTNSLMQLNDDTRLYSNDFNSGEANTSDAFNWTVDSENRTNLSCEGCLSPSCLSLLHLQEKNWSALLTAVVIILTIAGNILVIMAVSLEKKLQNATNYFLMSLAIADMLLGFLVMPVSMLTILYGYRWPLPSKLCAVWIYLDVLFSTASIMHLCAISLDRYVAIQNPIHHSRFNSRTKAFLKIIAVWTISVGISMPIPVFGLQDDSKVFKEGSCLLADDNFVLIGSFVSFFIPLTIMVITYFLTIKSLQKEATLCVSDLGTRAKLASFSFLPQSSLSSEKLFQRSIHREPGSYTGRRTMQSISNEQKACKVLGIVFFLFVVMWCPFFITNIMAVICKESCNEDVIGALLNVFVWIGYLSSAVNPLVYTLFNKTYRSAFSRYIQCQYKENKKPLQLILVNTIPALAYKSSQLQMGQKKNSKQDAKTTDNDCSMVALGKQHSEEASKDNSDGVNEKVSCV
Readout Name: Ki (nM)
One number for each entry, in nM.

Q: Dear colleague, I am looking for the recorded Ki of the following molecule: O=c1[nH]c2ccccc2n1C1CCN(CCCOc2ccc(F)cc2)CC1
Result: 3.16

----------
Molecular target: 5-hydroxytryptamine receptor 1A (Homo sapiens, UniProt P08908)
Sequence (P08908 whole entry): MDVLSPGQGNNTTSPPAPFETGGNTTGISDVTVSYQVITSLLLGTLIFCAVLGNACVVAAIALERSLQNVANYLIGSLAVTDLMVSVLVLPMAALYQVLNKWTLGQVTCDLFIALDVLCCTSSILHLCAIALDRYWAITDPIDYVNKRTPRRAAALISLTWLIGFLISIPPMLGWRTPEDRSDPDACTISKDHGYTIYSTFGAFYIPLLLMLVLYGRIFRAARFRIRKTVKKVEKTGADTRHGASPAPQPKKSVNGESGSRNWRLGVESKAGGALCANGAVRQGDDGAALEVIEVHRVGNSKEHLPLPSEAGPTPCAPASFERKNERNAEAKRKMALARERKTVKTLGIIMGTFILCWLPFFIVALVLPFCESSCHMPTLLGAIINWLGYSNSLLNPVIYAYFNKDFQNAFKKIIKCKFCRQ
Assay: Activity at 5HT1A receptor
Readout Name: pEC50
Numbers only, as −log10 of the molar value.

Q: Dear colleague, I am looking for the recorded pEC50 of the following compound: O=c1[nH]c2ccccc2n1C1CCN(CCCOc2ccc(F)cc2)CC1
Result: 7.30

----------
Measured pIC50 on Voltage-gated inwardly rectifying potassium channel KCNH2 (Homo sapiens) follows.
Sequence (Q12809 whole entry): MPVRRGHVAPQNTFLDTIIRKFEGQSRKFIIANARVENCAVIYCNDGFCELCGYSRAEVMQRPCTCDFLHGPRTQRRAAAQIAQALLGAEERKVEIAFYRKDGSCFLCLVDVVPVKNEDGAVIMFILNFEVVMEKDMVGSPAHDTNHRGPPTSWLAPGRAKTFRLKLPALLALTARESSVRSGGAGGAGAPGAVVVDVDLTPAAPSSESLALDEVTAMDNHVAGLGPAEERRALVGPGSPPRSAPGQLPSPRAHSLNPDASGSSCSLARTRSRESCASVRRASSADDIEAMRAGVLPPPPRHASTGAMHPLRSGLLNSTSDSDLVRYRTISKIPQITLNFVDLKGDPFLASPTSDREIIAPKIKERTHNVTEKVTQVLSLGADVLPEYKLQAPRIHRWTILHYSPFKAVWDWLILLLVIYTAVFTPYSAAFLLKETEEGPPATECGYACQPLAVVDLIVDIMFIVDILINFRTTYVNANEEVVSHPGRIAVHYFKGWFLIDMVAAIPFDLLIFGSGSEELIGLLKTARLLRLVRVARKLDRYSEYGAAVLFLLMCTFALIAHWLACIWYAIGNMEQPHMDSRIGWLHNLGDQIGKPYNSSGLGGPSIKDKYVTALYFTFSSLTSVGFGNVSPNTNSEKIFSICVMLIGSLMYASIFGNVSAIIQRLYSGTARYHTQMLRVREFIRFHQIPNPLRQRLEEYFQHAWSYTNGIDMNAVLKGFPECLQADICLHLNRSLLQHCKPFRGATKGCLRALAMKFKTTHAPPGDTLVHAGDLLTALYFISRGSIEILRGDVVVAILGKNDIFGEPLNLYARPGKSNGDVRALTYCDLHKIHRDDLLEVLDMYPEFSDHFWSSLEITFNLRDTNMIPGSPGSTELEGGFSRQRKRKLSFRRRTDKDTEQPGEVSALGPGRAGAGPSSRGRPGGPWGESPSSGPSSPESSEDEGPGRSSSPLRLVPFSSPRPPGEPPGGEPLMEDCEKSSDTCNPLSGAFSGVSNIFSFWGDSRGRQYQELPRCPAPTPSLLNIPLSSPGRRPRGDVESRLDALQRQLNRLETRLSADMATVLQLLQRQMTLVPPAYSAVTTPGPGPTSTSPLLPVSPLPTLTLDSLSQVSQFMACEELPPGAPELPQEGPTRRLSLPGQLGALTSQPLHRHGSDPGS
Give bare numbers, as −log10 of the molar value.

Worked examples, 2 compounds total:
Structure Smiles: Cc1ccc2[nH]c(=O)n(C3CCN(C4CCOCC4)CC3)c2c1
pIC50: 4.60
--
Structure Smiles: Cc1cc2c(cc1F)[nH]c(=O)n2C1CCN(C2CCOCC2)CC1
pIC50: 4.90

Turning to the following compound.
Q: Dear colleague, I am looking for the recorded pIC50 of the following compound: O=c1[nH]c2ccccc2n1C1CCN(CCCOc2ccc(F)cc2)CC1
Result: 7.10

----------
Target: Muscarinic acetylcholine receptor M2 (Homo sapiens, UniProt P08172)
Sequence (P08172 whole entry): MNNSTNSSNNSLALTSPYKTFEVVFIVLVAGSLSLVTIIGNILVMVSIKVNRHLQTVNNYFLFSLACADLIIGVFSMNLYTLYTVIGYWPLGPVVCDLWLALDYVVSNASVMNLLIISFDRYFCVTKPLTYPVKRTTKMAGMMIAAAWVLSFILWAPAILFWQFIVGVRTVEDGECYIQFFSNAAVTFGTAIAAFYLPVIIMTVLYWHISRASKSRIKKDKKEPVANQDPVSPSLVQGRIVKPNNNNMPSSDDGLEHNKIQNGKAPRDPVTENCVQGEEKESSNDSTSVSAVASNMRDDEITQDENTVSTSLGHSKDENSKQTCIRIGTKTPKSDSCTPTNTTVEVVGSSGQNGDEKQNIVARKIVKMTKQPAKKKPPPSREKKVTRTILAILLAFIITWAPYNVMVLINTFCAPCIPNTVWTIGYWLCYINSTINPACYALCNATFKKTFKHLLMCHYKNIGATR
Experiment: Agonist activity at human muscarinic M2 receptor expressed in CHO cells coexpressing Galpha16 subunit assessed as intracellular calcium mobilization after 10 to 15 mins by FLIPR assay
Readout Name: pEC50
Answers are plain numbers, as −log10 of the molar value.

Q: Dear colleague, I am looking for the recorded pEC50 of the following compound: Cc1ccc2[nH]c(=O)n(C3CCN(C4CCOCC4)CC3)c2c1
Result: 6.20

----------
assay: Blood clearance in rat at 1 mg/kg, iv; type: ADME, organism-based; design: dose 1 mg/kg, route intravenous
Readout Name: clearance (mL/min/kg)
One number for each entry, in mL/min/kg.

Q: Dear colleague, I am looking for the recorded clearance of the following compound: O=c1[nH]c2ccccc2n1C1CCN(C2CCOCC2)CC1
Result: 68

----------
I'd be grateful if you could share measured EC50 for these entries.
biological target: Muscarinic acetylcholine receptor M3 (Homo sapiens, UniProt P20309); test: Agonist activity at human muscarinic M3 receptor expressed in CHO cells assessed as intracellular calcium mobilization after 10 to 15 mins by FLIPR assay
Sequence (P20309 whole entry): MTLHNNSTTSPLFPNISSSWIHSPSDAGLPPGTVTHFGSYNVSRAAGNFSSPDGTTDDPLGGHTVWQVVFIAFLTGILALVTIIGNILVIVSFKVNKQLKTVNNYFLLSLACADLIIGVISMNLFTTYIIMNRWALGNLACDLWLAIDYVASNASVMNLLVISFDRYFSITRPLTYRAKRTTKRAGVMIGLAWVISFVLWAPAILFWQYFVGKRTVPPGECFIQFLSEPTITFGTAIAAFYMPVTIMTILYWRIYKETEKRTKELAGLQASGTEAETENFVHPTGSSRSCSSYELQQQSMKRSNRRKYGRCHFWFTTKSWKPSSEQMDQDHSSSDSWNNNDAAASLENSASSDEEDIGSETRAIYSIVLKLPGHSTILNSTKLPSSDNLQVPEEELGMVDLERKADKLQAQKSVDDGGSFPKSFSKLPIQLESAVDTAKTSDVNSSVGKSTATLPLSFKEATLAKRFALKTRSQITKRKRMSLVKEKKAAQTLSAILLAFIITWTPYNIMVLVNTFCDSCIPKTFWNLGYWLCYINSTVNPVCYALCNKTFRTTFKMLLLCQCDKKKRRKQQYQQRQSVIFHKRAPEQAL

Report EC50 for every entry below.
1. O=c1[nH]c2ccccc2n1C1CCN(C2CCOCC2)CC1
2. O=c1[nH]c2ccccc2n1C1CCN(CCCOc2ccc(F)cc2)CC1
3. Cc1ccc2[nH]c(=O)n(C3CCN(C4CCOCC4)CC3)c2c1

Result:
1: > 10 µM; 2: > 25.1 µM; 3: 3.98 µM
